target: human renin (Homo sapiens, UniProt P00797); construct: taking the active type (67-406); made in house; test: Measurement of renin inhibition value - B (angiotensinogen substrate, angiotensin I EIA); assay type: biochemical; conditions: 1 μM test compound, pH 7.4, 37° C., 30 min, read-out: human renin inhibitory activity: inhibitory activity (%) at 1 μM
Sequence (P00797 67-406): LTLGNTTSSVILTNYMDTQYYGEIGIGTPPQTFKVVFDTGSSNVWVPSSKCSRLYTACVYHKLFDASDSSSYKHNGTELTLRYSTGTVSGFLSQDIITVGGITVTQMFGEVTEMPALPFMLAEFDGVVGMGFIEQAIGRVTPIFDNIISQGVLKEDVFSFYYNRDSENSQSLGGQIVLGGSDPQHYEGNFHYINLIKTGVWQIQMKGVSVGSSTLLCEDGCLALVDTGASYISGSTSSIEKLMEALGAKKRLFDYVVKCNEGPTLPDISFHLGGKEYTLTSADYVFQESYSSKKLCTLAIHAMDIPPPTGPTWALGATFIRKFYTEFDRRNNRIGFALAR
Structures can show the parent of a compound that is named as a salt.
measured_metric: inhibition at 1 µM (%)

Worked examples follow.
molecule	tested_target	unit_descriptor	inhibition at 1 µM
CC(C)CN(C(=O)c1cnc(C(C)(C)C)nc1NCc1ncco1)[C@@H]1CNC[C@H](C(=O)N2CCOCC2)C1 [Example 109, sulfate]	human renin (Homo sapiens, UniProt P00797)	%	98
CNCC1CCN(C(=O)c2cnc(C(C)(C)C)nc2NCc2ccco2)CC1 [Example 59, dihydrochloride]	human renin (Homo sapiens, UniProt P00797)	%	86
CNCC1CCN(C(=O)c2cnc(C(C)C)nc2NCc2ccco2)CC1 [Example 63]	human renin (Homo sapiens, UniProt P00797)	%	54
CC(C)CN(C(=O)c1cnc(C(C)(C)C)nc1NCc1ccco1)[C@@H]1CNC[C@H](C(N)=O)C1 (relative stereo) [Example 93, dihydrochloride]	human renin (Homo sapiens, UniProt P00797)	%	97
COCCCNc1nc(C(C)(C)C)ncc1C(=O)N(CC(C)C)[C@@H]1CNC[C@H](C(=O)OC)C1 [Example 96, dihydrochloride]	human renin (Homo sapiens, UniProt P00797)	%	97

A = CCC1CCCCN1C(=O)c1cnc(C(C)(C)C)nc1NCc1ccco1 (stereo not shown) [Example 21]
B = COC(=O)[C@H]1CNC[C@@H](N(CC(C)C)C(=O)c2cnc(C(C)(C)C)nc2NCc2ccccc2)C1 (relative stereo) [Example 99]
Problem: Task for the reader: decide whether A or B has the larger inhibition at 1 µM. Please reply using the label of the selected record.
Solution: B
(B: 97%, A: 58%)
